Here the recorded residual activity is given for each entry.
system_tested: Serine/threonine-protein kinase WNK3 (Homo sapiens)
measurement_parameters: at 10 µM
Description: Millipore: Percentage of residual kinase activity of WNK3 at 10uM relative to control. Control inhibitor: Phosphoric acid* at 0.3uM. Buffer: 8 mM MOPS pH 7.0, 0.2 mM EDTA
Answer shape: numeric part, then the unit.

Ask: Entry under review: "O=C1C(Cl)=C(N2C(=O)CCC2=O)C(=O)c2ccccc21" . Reported residual activity?
Result: 95%

Ask: Name the reported residual activity value associated with the molecule "CCN(CC)CCNC(=O)c1c(C)[nH]c(/C=C2\C(=O)Nc3ccc(Cl)cc32)c1C"
Result: 63%

Ask: residual activity lookup needed for "O=C1Cc2c([nH]c3ccc(Br)cc23)-c2ccccc2N1" , thanks.
Result: 70%

Ask: What residual activity value was documented for this molecule, "CN([C@@H](Cc1ccc(OS(=O)(=O)c2cccc3cnccc23)cc1)C(=O)N1CCN(c2ccccc2)CC1)S(=O)(=O)c1cccc2cnccc12" ?
Result: 99%

Ask: # lookup: residual activity of "CN(C)S(=O)(=O)c1ccc2c(c1)/C(=C/c1cc3c([nH]1)CCCC3)C(=O)N2"
Result: 89%
